procedure-summary: small-molecule binders of probe aInhba, primary screen, biochemical, small-molecule microarray, 635/667 nm fluorescence (AID 1148);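 also: score merges 667nm spot fluorescence with signal-to-noise for antibody binding to printed compounds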
condition-description: higher = more signal
Please note: yes applies when composite z-score is -0.1 or greater, and no applies otherwise.

Reference set, count: 2
COC(=O)C1=CC(CCCO)=CC(C2CC2)N(Cc2cccc(OC(F)(F)F)c2)C=C1C(=O)OC (configuration not stated) = yes
COC(=O)[C@@H]1N=C(c2ccc(OCCCO)cc2)O[C@@H]1c1ccccc1CN=[N+]=[N-] = yes

Given COCCOC(=O)N1C(=O)[C@@]2(c3cc(C#CC4(O)CCCCCC4)ccc31)[C@H](C(=O)N1CCc3cc(OC)c(OC)cc3C1)[C@H]1C(=O)O[C@H](c3ccccc3)[C@H](c3ccccc3)N1[C@@H]2c1ccc(O)cc1 , state whether its composite z-score is at least -0.1.
yes

Given C=C(/C(=C/C[C@@H](OC(C)=O)c1ccccc1OCCO)c1cc(C(=O)OC)ccc1OC)C(C)C , state whether its composite z-score is at least -0.1.
yes

Given CC(C)C[C@@H]1NC(=O)[C@H]2C[C@@H](C(=O)NCCCCCCNC(=O)CS)[C@@H](c3ccc(O)cc3)N2C1=O , state whether its composite z-score is at least -0.1.
no

Given CCCCNC(=O)c1ccc(C#C[Si](C)(C)C)c(OC(C)=O)c1 , state whether its composite z-score is at least -0.1.
no

----------
procedure-summary: small-molecule binders of probe aNOTCH3, primary screen, biochemical, small-molecule microarray, 635/667 nm fluorescence (AID 1120);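 also: probe is a biotin-tagged antibody raised against NOTCH3 rather than NOTCH3 protein; score merges spot fluorescence near 667 nm with spot signal to noise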
condition-description: higher = more signal
attribute-measured: composite z-score

CCCC[C@@H]1C[C@H]1[C@@H](NC(=O)c1ccc(C(F)(F)F)cc1)c1ccc(C(=O)OC)cc1 = 0.0501

Quick check: composite z-score of CCOC(=O)C1=CC[C@@H](c2ccccc2)N(S(=O)(=O)C[Si](C)(C)C)[C@H]1c1ccccc1 ?
0.138

Quick check: composite z-score of CO[C@H]1O[C@H](CO)[C@@H](OC(=O)Nc2ccc(C(F)(F)F)cc2)[C@H](OC(=O)Nc2ccccc2-c2ccccc2)[C@@H]1OC(=O)Nc1ccccc1-c1ccccc1 ?
0.387

Quick check: composite z-score of COCCOC(=O)N1C(=O)[C@@]2(c3ccccc31)[C@H](C(=O)N1CCCCCCC1)[C@H]1C(=O)O[C@H](c3ccccc3)[C@H](c3ccccc3)N1[C@@H]2c1ccc(O)cc1 ?
2

Quick check: composite z-score of CCCCC(O)C1C=CC2C(=O)NC(=O)C2N1Nc1ccc(Cl)cc1Cl (stereo not drawn) ?
0.23

Quick check: composite z-score of C[C@H]1NC(=O)C([C@@H](C)OCc2ccccc2)NC(=O)[C@@]23C(=O)N[C@@H](Cc4ccccc4)C2[C@H](C)[C@@]2(C)O[C@H]2C3/C=C/C/C=C\CNC1=O (stereo partly drawn) ?
-0.136

Quick check: composite z-score of CN1C=C(C(=O)OCCS(C)(=O)=O)C(C(=O)OCCS(C)(=O)=O)=CC(CCCO)=CC1c1ccc(CN2CCCC2)cc1 (stereo not drawn) ?
0.405

Quick check: composite z-score of COc1ccc(CCNC(=O)[C@@]2(Sc3ccc(C)cc3)CC(=O)N(Cc3cc(C(F)(F)F)cc(C(F)(F)F)c3)[C@@H]2c2ccc(CO)cc2)cc1 ?
-0.352
